biological target: Mitogen-activated protein kinase 9 (Homo sapiens, UniProt P45984); assay: Inhibition of His6-tagged JNK2 (unknown origin) assessed as reduction in c-Jun phosphorylation using GST-c-Jun (1 to 79 residues) and [gamma32P]ATP incubated for 1 hr by scintillation counting assay
Sequence (P45984 whole entry, the tested form may be a part): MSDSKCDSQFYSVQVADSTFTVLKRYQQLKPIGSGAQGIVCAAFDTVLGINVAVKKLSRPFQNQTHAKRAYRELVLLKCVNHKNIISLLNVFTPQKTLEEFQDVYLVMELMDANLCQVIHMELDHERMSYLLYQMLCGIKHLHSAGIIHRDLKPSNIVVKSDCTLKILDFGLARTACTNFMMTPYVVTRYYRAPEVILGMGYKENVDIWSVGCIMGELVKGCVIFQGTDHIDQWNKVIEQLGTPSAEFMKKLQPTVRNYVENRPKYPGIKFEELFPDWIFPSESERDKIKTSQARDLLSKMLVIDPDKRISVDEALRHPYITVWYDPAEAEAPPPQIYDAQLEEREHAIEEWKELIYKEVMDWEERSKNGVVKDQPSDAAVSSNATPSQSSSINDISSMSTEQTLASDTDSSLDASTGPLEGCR
pIC50: −log10 of the molar value.
property.label: pIC50

molecule	property.label	value.reported
COc1ccccc1C(=O)Nc1ccc2[nH]nc(-c3ccc(F)cc3)c2c1	pIC50	≥ 5.00
c1nc(-c2ccc3[nH]nc(-c4ccsc4)c3c2)n[nH]1	pIC50	5.00 to 6.00
c1cc(OCCN2CCCCC2)cc(-c2n[nH]c3ccc(-c4nc[nH]n4)cc23)c1	pIC50	5.00 to 6.00
NC(=O)c1ccc2[nH]nc(-c3ccc4c(c3)CCO4)c2c1	pIC50	5.00 to 6.00
Fc1ccc(-c2n[nH]c3ccc(-c4nnc(-c5cccnc5)[nH]4)cc23)cc1	pIC50	5.00 to 6.00
NC(=O)c1ccc2[nH]nc(-c3cc4ccccc4s3)c2c1	pIC50	5.00 to 6.00
Nc1ccc(-c2n[nH]c3ccc(-c4nc[nH]n4)cc23)cc1	pIC50	5.00 to 6.00
Oc1ccc2[nH]nc(-c3ccccc3)c2c1	pIC50	5.00 to 6.00
CC(C)(C)OC(=O)CCNC(=O)c1ccc2[nH]nc(-c3ccc(F)cc3)c2c1	pIC50	≥ 5.00
COc1cccc(-c2n[nH]c3ccc(-c4nnn[nH]4)cc23)c1	pIC50	5.00 to 6.30
CC(O)c1nnc(-c2ccc3[nH]nc(-c4ccc(F)cc4)c3c2)[nH]1 (configuration not stated)	pIC50	5.00 to 6.30
COc1ccc(-c2n[nH]c3ccc(C(N)=O)cc23)cc1	pIC50	5.00 to 6.00
O=[N+]([O-])c1ccc2[nH]nc(-c3ccoc3)c2c1	pIC50	≥ 5.00
O=C(NCc1ccccn1)c1ccc2[nH]nc(-c3ccc(F)cc3)c2c1	pIC50	5.00 to 6.00
O=C(CC1CCCCC1)Nc1cccc(-c2n[nH]c3ccc(-c4nc[nH]n4)cc23)c1	pIC50	5.00 to 6.30
CN(C)C(=O)c1ccc2[nH]nc(-c3ccc(F)cc3)c2c1	pIC50	≥ 5.00
CC(=O)c1ccc2[nH]nc(-c3ccc(F)cc3)c2c1	pIC50	5.00 to 6.00
c1cc2[nH]nc(-c3ccc4c(c3)OCCO4)c2cc1-c1n[nH]c(CN2CCCC2)n1	pIC50	5.00 to 6.00
O=C(Nc1cccc(-c2n[nH]c3ccc(-c4nc[nH]n4)cc23)c1)c1cccnc1	pIC50	5.00 to 6.30
Fc1ccc(-c2n[nH]c3ccc(/C=C/c4ccccn4)cc23)cc1	pIC50	≥ 5.00
c1cncc(COc2cccc(-c3n[nH]c4ccc(-c5nc[nH]n5)cc34)c2)c1	pIC50	5.00 to 6.00
O=C(NCCOc1cccc(-c2n[nH]c3ccc(-c4ncn[nH]4)cc23)c1)OCc1ccccc1	pIC50	5.00 to 6.00

###

target: Mitogen-activated protein kinase 9 (Homo sapiens, UniProt P45984); assay: Inhibition of His6-tagged JNK2 (unknown origin) assessed as reduction in c-Jun phosphorylation using GST-c-Jun (1 to 79 residues) and [gamma32P]ATP incubated for 1 hr by scintillation counting assay
Listed next: entries and their corresponding IC50.
property.label: IC50

1) O=C(NCc1ccncc1)c1ccc2[nH]nc(-c3ccc(F)cc3)c2c1 1 to 10 µM
2) CN(C)Cc1nc(-c2ccc3[nH]nc(-c4cccc(NC(=O)CC(C)(C)C)c4)c3c2)n[nH]1 0.5 to 10 µM
3) COc1ccc(-c2n[nH]c3ccc(C(N)=O)cc23)cc1OC 1 to 10 µM
4) O=C(Nc1ccc2[nH]nc(-c3ccc(F)cc3)c2c1)c1cccs1 1 to 10 µM
5) CN1CCN(CC(=O)Nc2cccc(-c3n[nH]c4ccc(-c5nc[nH]n5)cc34)c2)CC1 1 to 10 µM
